Molecular target: Alpha-1A adrenergic receptor (Homo sapiens, UniProt P35348); further: assay procedure not described here
Sequence (P35348 whole entry): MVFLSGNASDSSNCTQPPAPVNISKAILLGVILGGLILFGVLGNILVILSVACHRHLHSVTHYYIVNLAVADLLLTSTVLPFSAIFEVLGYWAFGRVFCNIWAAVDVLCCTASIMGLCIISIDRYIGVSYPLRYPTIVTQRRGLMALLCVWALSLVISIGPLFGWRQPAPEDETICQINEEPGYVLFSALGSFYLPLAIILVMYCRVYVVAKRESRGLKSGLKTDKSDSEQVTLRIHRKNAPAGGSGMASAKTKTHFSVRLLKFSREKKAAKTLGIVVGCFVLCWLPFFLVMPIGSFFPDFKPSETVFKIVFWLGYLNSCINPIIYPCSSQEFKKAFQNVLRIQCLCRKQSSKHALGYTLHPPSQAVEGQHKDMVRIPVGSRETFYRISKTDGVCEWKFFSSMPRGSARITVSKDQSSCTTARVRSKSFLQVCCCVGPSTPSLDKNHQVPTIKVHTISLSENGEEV
Type: functional, cell-based
So I've got a bunch of compounds here, and I need their AC50 values.

Challenge: Record request: AC50 value, item CCCCCCOC(=O)CCC(=O)CN [HEXAMINOLEVULINATE]
Response given: > 30 µM

Challenge: Then this compound: Cn1c(=O)c2[nH]cnc2n(C)c1=O
Response given: > 30 µM

Challenge: Can you handle Clc1ccc2c(c1)C(c1ccccc1)=NCc1nncn1-2 next?
Response given: > 30 µM

Challenge: // same read-out, input: CS(=O)(=O)OCCCCOS(C)(=O)=O
Response given: > 30 µM

Challenge: Next up: N[C@H](Cc1cc(I)c(Oc2cc(I)c(O)c(I)c2)c(I)c1)C(=O)O
Response given: > 30 µM

Challenge: Check O=C(O)c1ccccc1Nc1cccc(C(F)(F)F)c1 too.
Response given: > 30 µM

Challenge: How about CC(=O)OCC[N+](C)(C)C ?
Response given: > 30 µM

Challenge: Another: CO/N=C(\C(=O)N[C@@H]1C(=O)N2C(C(=O)O)=C(COC(N)=O)CS[C@H]12)c1ccco1
Response given: > 30 µM

Challenge: Same lookup for Cc1cccc(N(C)C(=S)Oc2ccc3ccccc3c2)c1 [TOLNAFTATE] , please.
Response given: > 30 µM

Challenge: Queued: CCCN(CCC)CCc1cccc2c1CC(=O)N2
Response given: > 30 µM

Challenge: Another compound to look at: CC(C)(C)NCC(O)c1cc(Cl)c(N)c(Cl)c1 (stereo not given)
Response given: > 30 µM

Challenge: Continue with CC(C)CC(N(C)C)C1(c2ccc(Cl)cc2)CCC1 (stereo not given)
Response given: > 30 µM

Challenge: Also Cc1cc2nc3c(=O)[nH]c(=O)nc-3n(C[C@H](O)[C@H](O)[C@H](O)COP(=O)(O)O)c2cc1C [RIBOFLAVIN 5'-PHOSPHATE] ?
Response given: 5.1 µM

Challenge: One more compound: N#Cc1ccccc1-c1cc(-c2ccccn2)cn(-c2ccccc2)c1=O
Response given: > 30 µM

Challenge: Please answer likewise for C[C@@H]1CCC[C@H](C)N1NC(=O)c1ccc(Cl)c(S(N)(=O)=O)c1 [CLOPAMIDE]
Response given: > 30 µM

Challenge: Also check CC(=O)c1ccc2c(c1)N(CCCN1CCC(CCO)CC1)c1ccccc1S2
Response given: 0.14 µM

Challenge: Field entry: CCC(=O)OCC(=O)[C@@]1(OC(=O)CC)[C@@H](C)C[C@H]2[C@@H]3CCC4=CC(=O)C=C[C@]4(C)[C@@]3(F)[C@@H](O)C[C@@]21C [BETAMETHASONE DIPROPIONATE]
Response given: > 30 µM

Challenge: Now consider [H]/N=C(\N/C(=N/[H])NCCCCCCNC(=N)NC(=N)Nc1ccc(Cl)cc1)Nc1ccc(Cl)cc1 .
Response given: 0.6 µM

Challenge: # iterate: O=C(CCCN1CCC2(CC1)C(=O)NCN2c1ccccc1)c1ccc(F)cc1
Response given: 1.6 µM

Challenge: Similarly, CC(C)=CCOc1ccc(/C=C/C(=O)c2ccc(OCC=C(C)C)cc2OCC(=O)O)cc1 ?
Response given: 25 µM

====

Reported AC50, Mu-type opioid receptor (Homo sapiens, UniProt P35372).

Challenge: Given the molecule c1cc(CN2CCCNCCNCCCNCC2)ccc1CN1CCCNCCNCCCNCC1 , what is its reported AC50?
Response given: > 30 µM

Challenge: Also, Cn1c(=O)c2c(ncn2CC(O)CO)n(C)c1=O (stereo not drawn) please.
Response given: > 30 µM

Challenge: Try CCOc1cc(N)c(Cl)cc1C(=O)NCC1CN(Cc2ccc(F)cc2)CCO1 (stereo not drawn) [MOSAPRIDE] next.
Response given: > 30 µM
